Test: NCI Yeast Anticancer Drug Screen. Data for the mlh1 strain (AID 171);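 note: 0% = growth of vehicle-treated control cultures of the same strain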
Conditions: S. cerevisiae mlh1 strain growth inhibition; at 1.2 µM; hits give high values
Description: Growth inhibition of yeast strains with defined genetic alterations is measured as a screen for potential anti-cancer activity. Selected strains with alterations in DNA damage repair or cell cycle control were exposed to compounds and growth inhibition was measured relative to vehicle treated controls. The strain used in this assay is mlh1
The panel holds about 79,000 compounds, 15% with a hit somewhere; the sample as a whole holds those more often.
Each entry below lists one item and its recorded growth inhibition value.
Provide the reading as a plain figure in %.

CCOC(=O)C(NC(=O)c1ccccc1)(N1CCN(c2cc3c(cc2F)c(=O)c(C(=O)O)cn3C2CC2)CC1)C(F)(F)F (stereo not drawn) | -1

Bench note: what growth inhibition did OCC1OC(OCC(O)C(O)C(O)C(/C=N/Nc2ccccc2)=N/Nc2ccccc2)C(O)C(O)C1O (stereo not drawn) show? -2

Quick one: `FC(F)(F)c1nc2nc(Cl)c(Cl)nc2n1CCCN1CCOCC1` 1

Quick one: `c1ccc2c(c1)c1ncccc1c1nccnc21` -10

Quick one: `O=C1Nc2ccccc2/C1=C/COc1ccccc1` -4

Quick one: CCC(C(=O)O)C1=C(c2ccccc2)CCc2ccccc21 (stereo not drawn) 9

Quick one: `COc1ccc(OC)c2cc3ccccc3cc12` 14

Quick one: `CCCCCCCCCCNC(=O)OCC` -3

Quick one: `Cn1c(=O)c2ccccc2c2ccccc21` 8

Quick one: `O=C(NNc1ccnc2cc(Cl)ccc12)/C(=C\c1ccccc1Cl)NC(=O)c1ccccc1` -1

Quick one: `CCOC(=O)c1cnc2c(C(F)(F)F)cccc2c1N=[N+]=[N-]` -1

Quick one: `CC(=O)Oc1cc(-c2cc(OC(C)=O)c(OC(C)=O)c3ccccc23)c2ccccc2c1OC(C)=O` 1
